Test System: T1, LTα1β2 on the surface of PMA-treated II-23 cells (UniProt P01374 35-205, limits assumed)
T1 construct: whole, on cells; also called surface LT
T1 sequence 1: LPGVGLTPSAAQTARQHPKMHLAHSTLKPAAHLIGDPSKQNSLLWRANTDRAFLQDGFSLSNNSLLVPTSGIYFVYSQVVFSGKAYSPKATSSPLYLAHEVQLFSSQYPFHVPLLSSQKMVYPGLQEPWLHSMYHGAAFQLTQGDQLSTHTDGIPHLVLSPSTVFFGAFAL
T1 sequence 2: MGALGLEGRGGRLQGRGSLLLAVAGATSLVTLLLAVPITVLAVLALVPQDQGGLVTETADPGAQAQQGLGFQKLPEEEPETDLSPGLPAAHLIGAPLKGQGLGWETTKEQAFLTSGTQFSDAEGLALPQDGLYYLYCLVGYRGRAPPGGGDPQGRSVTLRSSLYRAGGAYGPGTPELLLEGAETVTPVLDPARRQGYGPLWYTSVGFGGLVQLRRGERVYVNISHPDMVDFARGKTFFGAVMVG
Experimental Details: competition FACS (II-23 assay, as in FIG. 4): LT-expressing cells, varied antibody, labelled LTβR-Ig; MFI of bound LTβR-Ig
Readout Name: IC50 (read off the curve)

Binder: A1D5 (antibody, V domains shown, Murine monoclonal antibody, kappa light chain; also called mAb A1D5) VH: EVQLQQSGPELVKPGASVKISCKASGYSFTGYFMNWMRQSHGKSLEWIGRINPYNGDSFYNQKFKDKATLTVDKSSTTAHMELLSLTSEDSAVYYCGRGYDAMDYWGQGTSVTVSS VL: DIQMTQTTSSLSASLGDRVTISCRASQDISNFLTWYQQKPDGTVKLLIYYTSKLHSGVPSRFSGSGSGTDYSLTISNLEPGDIATYYCQQVSKFPWTFGGGAKLEIK
Readout Name: IC50 (read off the curve)
Measured Value: ~0.6 µg/mL

Binder: LT101 (P1G4.4) / LT103 (P1G9.1) (antibody, V domains shown, Murine monoclonal antibody, kappa light chain; also called LT101/LT103) VH: QVQLQQSGPELVKPGASVQISCKASGYVFSSSWMNWVKQRPGRGLEWIGRIYPGDGDTDYTGKFKGKATLTADKSSNTAYMQLSSLTSVDSAVYFCASGYFDFWGQGTPLTVSS VL: DITMTQSPSSMYASLGERVTITCKASQDMNNYLRWFQQKPGKSPQTLIFRANRLVDGVPSRFSGSGSGQDYSLTISSLEFEDMGIYYCLQHDKFPPTFGGGTKLEIK
Readout Name: IC50 (read off the curve)
Measured Value: ~0.04 µg/mL

Values were extracted from patent US20140079716A1.
